The reported measurements were obtained from paper PMC7845594.

# Tested on: C. elegans host defense pathway genes
# test: nanoString expression of 115 immune- and stress-responsive genes
# experimental_context: 100 μM LK molecules, 16 h
Please go through the items and note down their T24C4.4 expression, induction.
The reply should read as a number followed by its unit.

QUERY: Name the recorded T24C4.4 expression, induction of the compound listed here: Cc1cc(C2CCCCC2)n(O)c(=O)c1 [Ciclopirox, reference compound]
RESULT: 1.62 fold

QUERY: Name the recorded T24C4.4 expression, induction of the compound listed here: CNC(=O)Oc1c(Br)cc2sc(=O)oc2c1Br
RESULT: 2.67 fold

QUERY: Name the recorded T24C4.4 expression, induction of the compound listed here: O=c1cc(CNc2ccc(Br)cc2)nc2sccn12
RESULT: 1.93 fold

QUERY: Name the recorded T24C4.4 expression, induction of the compound listed here: CN(C)/N=N/c1ccc(-c2cn(Cc3ccccc3)cn2)cc1
RESULT: 1.30 fold

QUERY: Name the recorded T24C4.4 expression, induction of the compound listed here: CCN(CC)/N=N/c1ccc(C(=O)O)cc1
RESULT: 4.80 fold

QUERY: Name the recorded T24C4.4 expression, induction of the compound listed here: COC(=O)/C=C/C(=O)Nc1ccccc1
RESULT: 3.75 fold

----------
# Test system: C. elegans host defense pathway genes
# test: nanoString expression of 115 immune- and stress-responsive genes
# experimental_context: 100 μM LK molecules, 16 h
readout_kind: C02B4.2 nhr-17 expression, induction (fold)
Provide the reading as a plain figure in fold.

QUERY: Name the recorded C02B4.2 nhr-17 expression, induction of the compound listed here: Cc1cc(C2CCCCC2)n(O)c(=O)c1 [Ciclopirox, reference compound]
RESULT: 5.80

QUERY: Name the recorded C02B4.2 nhr-17 expression, induction of the compound listed here: CCN(CC)/N=N/c1ccc(C(=O)O)cc1 [LK35]
RESULT: 4.68

QUERY: Name the recorded C02B4.2 nhr-17 expression, induction of the compound listed here: CN(C)/N=N/c1ccc(-c2cn(Cc3ccccc3)cn2)cc1 [LK38]
RESULT: 1.71

QUERY: Name the recorded C02B4.2 nhr-17 expression, induction of the compound listed here: COC(=O)/C=C/C(=O)Nc1ccccc1 [LK32]
RESULT: 5.68

QUERY: Name the recorded C02B4.2 nhr-17 expression, induction of the compound listed here: CNC(=O)Oc1c(Br)cc2sc(=O)oc2c1Br [LK34]
RESULT: 1.60

QUERY: Name the recorded C02B4.2 nhr-17 expression, induction of the compound listed here: O=c1cc(CNc2ccc(Br)cc2)nc2sccn12 [LK56]
RESULT: 1.97

----------
# Test system: C. elegans host defense pathway genes
# test: nanoString expression of 115 immune- and stress-responsive genes
# experimental_context: 100 μM LK molecules, 16 h
# Description: The ratio of MIC to EC was determined for each of the 69 compounds. Analysis of the expression of 115 immune- and stress-responsive genes using nanoString technology. Download Table S1, XLSX file, 0.02 MB. For nanoString-based (nanoString Technologies, Seattle, WA) experiments, 2,000 wild-type, young adult worms were exposed to 100 μM LK molecules or DMSO control in S Basal medium in 6-well plates for 16 h. […]
readout_kind: C32H11.1 expression, induction
The reply should read as a number followed by its unit.

QUERY: Name the recorded C32H11.1 expression, induction of the compound listed here: CNC(=O)Oc1c(Br)cc2sc(=O)oc2c1Br
RESULT: 5.22 fold

QUERY: Name the recorded C32H11.1 expression, induction of the compound listed here: CN(C)/N=N/c1ccc(-c2cn(Cc3ccccc3)cn2)cc1
RESULT: 18.31 fold

QUERY: Name the recorded C32H11.1 expression, induction of the compound listed here: Cc1cc(C2CCCCC2)n(O)c(=O)c1 [Ciclopirox, reference compound]
RESULT: 20.23 fold

QUERY: Name the recorded C32H11.1 expression, induction of the compound listed here: O=c1cc(CNc2ccc(Br)cc2)nc2sccn12
RESULT: 8.05 fold

QUERY: Name the recorded C32H11.1 expression, induction of the compound listed here: CCN(CC)/N=N/c1ccc(C(=O)O)cc1
RESULT: 0.93 fold

QUERY: Name the recorded C32H11.1 expression, induction of the compound listed here: COC(=O)/C=C/C(=O)Nc1ccccc1
RESULT: 1.40 fold

----------
# Test system: C. elegans host defense pathway genes
# test: nanoString expression of 115 immune- and stress-responsive genes
# experimental_context: 100 μM LK molecules, 16 h
I'd appreciate it if you marked entries True when C49G7.5 irg-2 expression, induction is lower than 4 fold and False when it is not.

QUERY: In plain terms, does O=c1cc(CNc2ccc(Br)cc2)nc2sccn12 come in under 4 fold for C49G7.5 irg-2 expression, induction?
RESULT: True

QUERY: In plain terms, does CNC(=O)Oc1c(Br)cc2sc(=O)oc2c1Br come in under 4 fold for C49G7.5 irg-2 expression, induction?
RESULT: True

QUERY: In plain terms, does COC(=O)/C=C/C(=O)Nc1ccccc1 come in under 4 fold for C49G7.5 irg-2 expression, induction?
RESULT: False

QUERY: In plain terms, does Cc1cc(C2CCCCC2)n(O)c(=O)c1 [Ciclopirox, reference compound] come in under 4 fold for C49G7.5 irg-2 expression, induction?
RESULT: True

QUERY: In plain terms, does CCN(CC)/N=N/c1ccc(C(=O)O)cc1 come in under 4 fold for C49G7.5 irg-2 expression, induction?
RESULT: False

----------
# System: C. elegans host defense pathway genes
# test: nanoString expression of 115 immune- and stress-responsive genes
# experimental_context: 100 μM LK molecules, 16 h
Param threshold (2 fold) applies to Y22D7AL.5 hsp-60 expression, induction; output T when value >= threshold, F when value < threshold.

QUERY: Given CNC(=O)Oc1c(Br)cc2sc(=O)oc2c1Br , state whether its Y22D7AL.5 hsp-60 expression, induction is at least 2 fold.
RESULT: F

QUERY: Given COC(=O)/C=C/C(=O)Nc1ccccc1 , state whether its Y22D7AL.5 hsp-60 expression, induction is at least 2 fold.
RESULT: T

QUERY: Given CCN(CC)/N=N/c1ccc(C(=O)O)cc1 , state whether its Y22D7AL.5 hsp-60 expression, induction is at least 2 fold.
RESULT: T

QUERY: Given Cc1cc(C2CCCCC2)n(O)c(=O)c1 [Ciclopirox, reference compound] , state whether its Y22D7AL.5 hsp-60 expression, induction is at least 2 fold.
RESULT: T

QUERY: Given CN(C)/N=N/c1ccc(-c2cn(Cc3ccccc3)cn2)cc1 , state whether its Y22D7AL.5 hsp-60 expression, induction is at least 2 fold.
RESULT: F

QUERY: Given O=c1cc(CNc2ccc(Br)cc2)nc2sccn12 , state whether its Y22D7AL.5 hsp-60 expression, induction is at least 2 fold.
RESULT: F

----------
# System: C. elegans host defense pathway genes
# test: nanoString expression of 115 immune- and stress-responsive genes
# experimental_context: 100 μM LK molecules, 16 h
Please go through the items and note down their C37C3.10 expression, induction.
Provide the reading as a plain figure in fold.

QUERY: Name the recorded C37C3.10 expression, induction of the compound listed here: Cc1cc(C2CCCCC2)n(O)c(=O)c1 [Ciclopirox, reference compound]
RESULT: 12.27

QUERY: Name the recorded C37C3.10 expression, induction of the compound listed here: O=c1cc(CNc2ccc(Br)cc2)nc2sccn12 [LK56]
RESULT: 3.56

QUERY: Name the recorded C37C3.10 expression, induction of the compound listed here: CN(C)/N=N/c1ccc(-c2cn(Cc3ccccc3)cn2)cc1 [LK38]
RESULT: 2.39

QUERY: Name the recorded C37C3.10 expression, induction of the compound listed here: CCN(CC)/N=N/c1ccc(C(=O)O)cc1 [LK35]
RESULT: 68.75

QUERY: Name the recorded C37C3.10 expression, induction of the compound listed here: CNC(=O)Oc1c(Br)cc2sc(=O)oc2c1Br [LK34]
RESULT: 2.56

QUERY: Name the recorded C37C3.10 expression, induction of the compound listed here: COC(=O)/C=C/C(=O)Nc1ccccc1 [LK32]
RESULT: 4.08

----------
# System: C. elegans host defense pathway genes
# test: nanoString expression of 115 immune- and stress-responsive genes
# experimental_context: 100 μM LK molecules, 16 h
readout_kind: C37H5.8 hsp-6 expression, induction (fold)
Provide the reading as a plain figure in fold.

QUERY: Name the recorded C37H5.8 hsp-6 expression, induction of the compound listed here: CNC(=O)Oc1c(Br)cc2sc(=O)oc2c1Br [LK34]
RESULT: 2.28

QUERY: Name the recorded C37H5.8 hsp-6 expression, induction of the compound listed here: Cc1cc(C2CCCCC2)n(O)c(=O)c1 [Ciclopirox, reference compound]
RESULT: 4.01

QUERY: Name the recorded C37H5.8 hsp-6 expression, induction of the compound listed here: CCN(CC)/N=N/c1ccc(C(=O)O)cc1 [LK35]
RESULT: 4.54

QUERY: Name the recorded C37H5.8 hsp-6 expression, induction of the compound listed here: COC(=O)/C=C/C(=O)Nc1ccccc1 [LK32]
RESULT: 3.96

QUERY: Name the recorded C37H5.8 hsp-6 expression, induction of the compound listed here: O=c1cc(CNc2ccc(Br)cc2)nc2sccn12 [LK56]
RESULT: 1.45

QUERY: Name the recorded C37H5.8 hsp-6 expression, induction of the compound listed here: CN(C)/N=N/c1ccc(-c2cn(Cc3ccccc3)cn2)cc1 [LK38]
RESULT: 1.74
